B1: TPR 5TU (parent)
chain: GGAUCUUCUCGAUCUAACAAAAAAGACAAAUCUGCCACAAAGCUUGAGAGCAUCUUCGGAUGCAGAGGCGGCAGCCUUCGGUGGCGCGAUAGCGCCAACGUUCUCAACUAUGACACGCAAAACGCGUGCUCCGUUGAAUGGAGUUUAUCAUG

variants of: B1; experiment: polymerase ribozyme fitness, log enrichment relative to wild type (log ratio); higher = more active; in vitro selection for triplet polymerase activity
Fewer inactive variants are shown than the library holds.

{"MUTANT_NAME": "A24U U53A U55A C95U C99A", "LT_GT_EQ": "≤", "polymerase ribozyme fitness (log ratio)": -4.2}
{"MUTANT_NAME": "C5G A39C C87A G126A G136C", "LT_GT_EQ": "≤", "polymerase ribozyme fitness (log ratio)": -4.2}
{"MUTANT_NAME": "U44A C72U A73G G86U A138C", "LT_GT_EQ": "≤", "polymerase ribozyme fitness (log ratio)": -4.2}
{"MUTANT_NAME": "C87U A91G C105G", "LT_GT_EQ": "=", "polymerase ribozyme fitness (log ratio)": -4.02}
{"MUTANT_NAME": "A23G A26U C54A U90G A91G", "LT_GT_EQ": "≤", "polymerase ribozyme fitness (log ratio)": -4.2}
{"MUTANT_NAME": "A49C C87U", "LT_GT_EQ": "=", "polymerase ribozyme fitness (log ratio)": -4.01}
{"MUTANT_NAME": "C36A A52C C85G A120G A122U U148A", "LT_GT_EQ": "=", "polymerase ribozyme fitness (log ratio)": -3.85}
{"MUTANT_NAME": "U4G G84A U109A A115C C123A", "LT_GT_EQ": "=", "polymerase ribozyme fitness (log ratio)": -2.01}
{"MUTANT_NAME": "U53A A98U", "LT_GT_EQ": "=", "polymerase ribozyme fitness (log ratio)": -1.39}
{"MUTANT_NAME": "A29G U31A C43G", "LT_GT_EQ": "≤", "polymerase ribozyme fitness (log ratio)": -4.2}
{"MUTANT_NAME": "C38G G133C A147C", "LT_GT_EQ": "=", "polymerase ribozyme fitness (log ratio)": -2.55}
{"MUTANT_NAME": "A22U G25A A41C A91G G94C", "LT_GT_EQ": "≤", "polymerase ribozyme fitness (log ratio)": -4.2}
{"MUTANT_NAME": "G84A A110U", "LT_GT_EQ": "=", "polymerase ribozyme fitness (log ratio)": -3.36}
{"MUTANT_NAME": "G84A C96G", "LT_GT_EQ": "=", "polymerase ribozyme fitness (log ratio)": -0.627}
{"MUTANT_NAME": "G48A C51U C54A U82G A120U", "LT_GT_EQ": "=", "polymerase ribozyme fitness (log ratio)": -3.66}
{"MUTANT_NAME": "A12G U61A C76A A106G", "LT_GT_EQ": "=", "polymerase ribozyme fitness (log ratio)": -3.97}
{"MUTANT_NAME": "A52U A89G", "LT_GT_EQ": "=", "polymerase ribozyme fitness (log ratio)": -3.14}
{"MUTANT_NAME": "U44G G143C", "LT_GT_EQ": "≤", "polymerase ribozyme fitness (log ratio)": -4.2}
{"MUTANT_NAME": "G80U C105U G136U", "LT_GT_EQ": "=", "polymerase ribozyme fitness (log ratio)": -1.49}
{"MUTANT_NAME": "A17U A20C C85U U102G C116G", "LT_GT_EQ": "=", "polymerase ribozyme fitness (log ratio)": -3.83}
{"MUTANT_NAME": "A19C C96U A106G A120C", "LT_GT_EQ": "=", "polymerase ribozyme fitness (log ratio)": 0.311}
{"MUTANT_NAME": "A40C G50A C72U U78C C87U", "LT_GT_EQ": "≤", "polymerase ribozyme fitness (log ratio)": -4.2}

Where these numbers come from: the RNAGym collection of RNA variant scans (doi:10.1073/pnas.2313332121)
